Provenance of the data: the supplement of paper PMC9170038

Test system: MS2 coat protein
Assay: apparent KD of MS2 coat protein; higher = weaker reporter binding
Conditions: Eterna round: R107; input ligand: theophylline 20 uM
Items are presented alongside their recorded apparent KD of MS2 coat protein.
endpoint label: apparent KD of MS2 coat protein

{"columns": ["residue codes", "readout value"],
 "data": [
  ["AUAAUUGGGUUAAUUAGUUUUAGGUCCAGUCGAGGACCGGUACGGCCGCCACUCGUUCCGAGAUACAUGAGGAUCACCCAUGUUA [JR_ExcTryptoA_Sub015]", "34.5 nM"],
  ["CAGGCCUUGCCCGGUGUUCCGAAAGUGGAAGGAGCGCACAUUGGUGCAGGUAGGUCGCCACAUGAGGAUCACCCAUGUCUAGGCC [Aveatti]", "111 nM"],
  ["ACCAGCACACAUGAUACCAGCGACAUGAGGAUCACCCAUGUACGGCGUGUAUCGAAAGGUUGCCCUUGGCAGCAUGAUAGUGCUA [Ratiarla]", "28.2 nM"],
  ["ACAUGAGGAUCACCCAUGUAAUCAUCAGAAGGAGCGUGGAAUAACACAGGUAGGUCGCUGAUGUUAUGUUAAAAUGGUUCGUGAA [JR_ExcArginiA_Sub002]", "23.7 nM"],
  ["UUUGGCGGCGAUCUGGGUUUACCAGAUCGGCGAGGACCGGUACGGCCGCCACUCGUGUUUCUUUGACAUGAGGAUCACCCAUGUA [whbob_SS_trypto A_f3]", "74.6 nM"],
  ["GGUGGCUGGAUCGAUACCAGCCACCACCGAUAGACCACAUGAGGAUCACCCAUGUUGGGUGGCCCUUGGCAGCGGUCCAGCUGCC [#1 Same State - Theophylline B Attempt #5 (HarryS)]", "1010 nM"]
]}

---

Tested on: MS2 coat protein
Test: apparent KD of MS2 coat protein; designed switch direction (-1 OFF switch, 1 ON switch): -1; higher = weaker reporter binding
Settings: input ligand: none
Items are presented alongside their recorded apparent KD of MS2 coat protein.

{"columns": ["residue codes", "apparent KD of MS2 coat protein"],
 "data": [
  ["CCCAUGCCUGAGGAUAUGCUGUACAAAAGUACUGCAGAAGGCGGGACAUGAGGAUCACCCAUGUGGCGAAAGCC [Omei Ex G6] (Eterna round: R97, puzzle: Exclusion 6)", "326 nM"],
  ["CCUUAUUAUCGAGGAUAUCCUAUUGAAAUUCUGGGAGAAGGCGGACUCAACAUGAGGAUCACCCAUGUGGGACGGAUGCUAGGA [salish99_exng1_r04_603] (Eterna round: R96, puzzle: Exclusion NG 1)", "20.2 nM"],
  ["UGAGAGUGAGGAUAUACGUCGCUGGUCCGGAUGGACGCAUGACAUGAGGAUCACCCAUGUAGAAGGCAUUUCCC [Enxela Mod 6 - Jieux - Exclusion 2] (Eterna round: R97, puzzle: Exclusion 2)", "26.9 nM"],
  ["UGAGCAACAGGAUAUAUAUGGCGACCGUGAGGUCGAAGGUUACAUGAGGAUCACCCAUGUAGAAGGGUUGUUCU [Mat - Exclusion 2 - JL Mod - D16] (Eterna round: R97, puzzle: Exclusion 2)", "102 nM"],
  ["GUCGUACAUGAGGAUCACCCAUGUGAGGAUAUGAGUGGUGCUGCUAGGUAGUAUAGACUCAGAAGGCGCAUGAU [Malcxlusion 2 - Jieux - Exclusion 1] (Eterna round: R97, puzzle: Exclusion 1)", "91.5 nM"],
  ["UAUGAAGUAGGAUAUACAUGAGGAUCACCCAUGUCCUUACUGAGACCGGGCACGGCUCGUAGAAGGGCUUUCGA [Eternabot (L2) Solution 50] (Eterna round: R97, puzzle: Exclusion 3)", "40.7 nM"],
  ["AAGUAACAUGAGGAUCACCCAUGUUAGGAUAUCUCGGCCACAGGAUCCCUGUGAAGCCAGAGAAGGAGCGGGUG [Ceraso] (Eterna round: R97, puzzle: Exclusion 1)", "202 nM"],
  ["CCCACAAGCUUUUUGCUCGACAUGAGGAUCACCCAUGUUGAAUGGGUUAGAUGUGUGUGAAACAUAUAUAUUUACCU [-24.2, -47 kcal, A 27%] (Eterna round: R97, puzzle: Sensor, turn-off variant 1)", "26.4 nM"],
  ["GGUUUAGUAGAGGAUAUGUCACUGUCGCAGGAGACAGAAGGCUGCACAUGAGGAUCACCCAUGUCGGUAAUGAG [Eternabot (L1) Solution 89] (Eterna round: R97, puzzle: Exclusion 6)", "16.3 nM"]
]}

---

Test system: K4 kissing-loop RNA reporter;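 also: bound reporter read as fluorescence of individual clusters on recovered sequencing chips by microscopy, with normalized cluster intensities fitted with a binding model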
Assay: apparent KD of K4 kissing-loop reporter; higher = weaker reporter binding
Details: Eterna round: R107; input ligand: tryptophan 2.4 mM

{"columns": ["residue codes", "assayed system", "unit descriptor", "apparent KD of K4 kissing-loop reporter"],
 "data": [
  ["GCUAGGAUGGCAGGAUAUAGUUCGUGAGUGAUGUUCAAAGAACUAAGAGGGACACCUCAUUCUAAACUAGAAGGGCCAUCCUAGC", "K4 kissing-loop RNA reporter", "nM", 337],
  ["AGGUACUACGGAAGGAGCGCACCAGUGAUGUUGGUGUGUGACCGUGACAUGGCAGUCAAGGUGCAGGUAGGUCGCCGUGGCCUUU [Anatartibe]", "K4 kissing-loop RNA reporter", "nM", 115],
  ["AGAGUUAAUUAGUCUUUUUUCACAUUAAGUCAGGAUAUCGUAUUUUCGAGAAGGGACACAUGCUAGUGAUGUUAGCUAUUUCUCA [JR_Nu3_ExcFMNA_Sub020]", "K4 kissing-loop RNA reporter", "nM", 59.6],
  ["CGCGCCCAGCCGGAUACCAGUGACCCGCUGGGAACCGCGGGCCCAGAGUGAUGUUCGGGACACCCUUGGCAGCCGCCUGGGCGGG [#2 Same State - Theophylline B Attempt #16 (HarryS)]", "K4 kissing-loop RNA reporter", "nM", 608]
]}

---

Tested on: MS2 coat protein
Assay: apparent KD of MS2 coat protein; designed switch direction (-1 OFF switch, 1 ON switch): -1; higher = weaker reporter binding
Conditions: Eterna round: R95; input ligand: microRNA oligo, concentration not stated

{"columns": ["residue codes", "apparent KD of MS2 coat protein"],
 "data": [
  ["CUUUUGUGAGGAUAUCAGUAGUAAAAAAAUAAAAUUACUUCUGAGAAGGCACAUGAGGAUCACCCAUGUUCCUC [salish99_ex4_r3_027] (puzzle: Exclusion 4)", "37.4 nM"],
  ["AUACCACGAGGAUAUCGACUAUACCACAUGAGGAUCACCCAUGUUAUCCAUGUUUCGUUUCGAGAAGGCGUGGGUU [JR_E5_Sub073] (puzzle: Exclusion 5)", "32.3 nM"],
  ["UUGGAUGUUGAGGAUAUGCUUUUUUUUAUUAUAGCAGAAGGCGAUACAUGAGGAUCACCCAUGUUCAUGGCUUU [JR_E6_Sub099] (puzzle: Exclusion 6)", "13.7 nM"],
  ["UCGCUGCGAGGAUAUACAUGAGGAUCACCCAUGUACGGGUCCGGGUCUUCGUCUAUUGGUAGAAGGCGCAGUGA [JL Laongeedie mod 8] (puzzle: Exclusion 3)", "43.6 nM"],
  ["UAUGUCUUUGUGAGGAUAUACUUUGUUUGGUCGUAGUAGAAGGCACAUGAGGAUCACCCAUGUAGAUUUUUGGU [JR_BME4_Sub011] (puzzle: Brourd's mod of Exclusion 4)", "20.1 nM"],
  ["GGGCAAUUAGGAUAUACAUGAGGAUCACCCAUGUGGAAGCCCGGACAGGUAAUCCACUGUAGAAGGGAUUGCGG [Userqube] (puzzle: Exclusion 3)", "13.5 nM"],
  ["AGCAUGGUAGGAUAUACGGAGCAUUAGGGUUUGUUAUGUGGACAUGAGGAUCACCCAUGUAGAAGGGCCGUGCA [Mat - Exclusion 2 - Mod of JL - D82] (puzzle: Exclusion 2)", "32.6 nM"],
  ["CCUUUGUCAGGAUAUCAGAAAACGCCCGUAGGGAGCGCAAAUGAGAAGGGACAUGAGGAUCACCCAUGUAAAGA [Edvereri] (puzzle: Exclusion 4)", "50.1 nM"],
  ["CUAUUGGCAGGAUAUGCUUUUUUAGACAUGAGGAUCACCCAUGUGAUGAAUUUUGGGUUUGCAGAAGGGCCUGAGU [JR_E5_Sub038] (puzzle: Exclusion 5)", "56.6 nM"],
  ["UUUUAACAUGAGGAUCACCCAUGUGAGGAUAUCGAAAUUUUUAUUAAUAUUAAUAAAACGAGAAGGCACAUUUU [JMF 12] (puzzle: Exclusion 1)", "58.3 nM"],
  ["AAACCUGCCCAUGACCGCAAGCUUUUUGCUUGUCUUACCACAUGAGGAUCACCCAUGUGACAUGGGCUCCUUAUAAA [Usteorrila] (puzzle: Sensor v3, turn-off variant 2)", "9.84 nM"]
]}
